Test system: QSK;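 further: KINOMEscan kinase panel screen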
Conditions: concentration: 1 μM, replicates: in singlicate; n = 1
For each entry below, report its %Inh value.
State the answer as a number, implicitly in %.

The recorded %Inh for entry Cl.c1ccc(-c2ccc3c(Nc4ccc5[nH]ncc5c4)ccnc3c2)nc1 equals 6

The recorded %Inh for entry Cl.NC(=O)c1cccc(Nc2nccc(Nc3ccc(Oc4c(Cl)cccc4Cl)c(Cl)c3)n2)c1 equals 0

The recorded %Inh for entry O=C(Nc1n[nH]c2nc(-c3ccc(O)cc3)ccc12)C1CC1 equals 17

The recorded %Inh for entry COc1ccc(CNC(=O)NC2CCN(c3ccnc(Nc4ccc(F)cc4)n3)CC2)cc1 equals 0

The recorded %Inh for entry Clc1ccc(-c2nn3ncccc3c2-c2ccnc(Nc3ccc4c(c3)OCCO4)n2)cc1 equals 0
